Test system: HSSY-II tumor spheroid viability
Experiment: Anticancer human tumor HSSY-II cell line growth inhibition;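 further: spheroids exposed to compounds for seven days before reading; percent of DMSO vehicle control viability so 100% = untreated level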
Settings: second compound 0.00949 µM; first compound 3 µM; active compounds read low; spheroids with HUVEC and MSC
Method: Multicellular complex tumor spheroid response to DNA repair inhibitors in combination with DNA-damaging drugs This study explores the anticancer activities of DNA-damaging drugs and inhibitors of DNA damage repair, both as single agents and in combinations. […] Twenty-six patient-derived or established malignant cell lines were evaluated representing sarcoma, melanoma, small cell lung cancer (SCLC), non-small cell lung cancer (NSCLC), as well as bladder, ovarian and pancreatic cancers. […]
PROPERTY LABEL: viability, T/C (%)

Cc1sc2c(c1C)C(c1ccc(Cl)cc1)=NC(CC(=O)Nc1ccc(O)cc1)c1nnc(C)n1-2 (centres undefined) + CC[C@@]1(O)C(=O)OCc2c1cc1n(c2=O)Cc2cc3c(CN(C)C)c(O)ccc3nc2-1: 4.79
O=C(c1cc(Cc2n[nH]c(=O)c3ccccc23)ccc1F)N1CCN(C(=O)C2CC2)CC1 + CC[C@@]1(O)C(=O)OCc2c1cc1n(c2=O)Cc2cc3c(CN(C)C)c(O)ccc3nc2-1: 7.16
CNCc1ccc(-c2cc(-c3nc(-c4ccc(S(=O)(=O)C(C)C)cc4)cnc3N)on2)cc1 + CC[C@@]1(O)C(=O)OCc2c1cc1n(c2=O)Cc2cc3c(CN(C)C)c(O)ccc3nc2-1: 0.35
Cn1ncnc1[C@H]1c2n[nH]c(=O)c3cc(F)cc(c23)N[C@@H]1c1ccc(F)cc1 + CC[C@@]1(O)C(=O)OCc2c1cc1n(c2=O)Cc2cc3c(CN(C)C)c(O)ccc3nc2-1: 3.69
